target: CRTH2 (KB8 cells) (Homo sapiens, UniProt Q9Y5Y4); construct: host or cells: KB8 cells (human CRTH2 expression cell); experiment: CRTH2 antagonist test (PGD2-induced intracellular calcium ion concentration increase in KB8 cells); format: cell-based; details: PGD2 final concentration 100 nM, Fluo-4-AM fluorescence, read-out: antagonist activity (IC50 value, inhibition of calcium ion concentration increase)
Sequence (Q9Y5Y4 whole entry): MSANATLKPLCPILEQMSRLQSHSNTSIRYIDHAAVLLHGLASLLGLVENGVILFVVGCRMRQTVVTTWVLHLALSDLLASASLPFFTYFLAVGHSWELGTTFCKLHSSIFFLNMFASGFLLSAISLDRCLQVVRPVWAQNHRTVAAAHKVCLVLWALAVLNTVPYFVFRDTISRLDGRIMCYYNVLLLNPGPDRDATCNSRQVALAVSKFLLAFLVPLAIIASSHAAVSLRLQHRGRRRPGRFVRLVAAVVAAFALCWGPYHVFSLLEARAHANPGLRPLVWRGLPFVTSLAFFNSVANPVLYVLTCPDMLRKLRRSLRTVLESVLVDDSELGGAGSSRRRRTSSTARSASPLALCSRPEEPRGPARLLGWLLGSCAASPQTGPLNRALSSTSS
pIC50: −log10 of the molar value.

[
  {
    "smiles code": "COc1ccc2[nH]c(CCNC(=O)c3ccc(Cc4ncc(CC(=O)O)c5ccccc45)cc3)cc2c1",
    "pIC50": "> 7.30"
  },
  {
    "smiles code": "Cc1ccc(F)cc1C(=O)Nc1ccc(C(=O)c2ncc(CC(=O)O)c3ccccc23)cc1",
    "pIC50": "6.30 to 7.30"
  },
  {
    "smiles code": "CCCOc1ccc(C(=O)Nc2ccc(C(=O)c3ncc(CC(=O)O)c4ccccc34)cc2)cc1",
    "pIC50": "> 7.30"
  },
  {
    "smiles code": "O=C(O)Cc1cnc(Cc2ccc(C(=O)NCCc3cc(Cl)cc(Cl)c3)cc2)c2ccccc12",
    "pIC50": "6.30 to 7.30"
  },
  {
    "smiles code": "O=C(O)Cc1cnc(Cc2ccc(C(=O)NCCc3ccccc3Br)cc2)c2ccccc12",
    "pIC50": "> 7.30"
  },
  {
    "smiles code": "O=C(O)Cc1cnc(Cc2ccc(S(=O)(=O)NCCc3ccc(Cl)cc3)cc2)c2ccccc12",
    "pIC50": "6.30 to 7.30"
  },
  {
    "smiles code": "Cc1ccc(C(=O)Nc2ccc(C(=O)c3ncc(CC(=O)O)c4ccccc34)cc2)cc1C",
    "pIC50": "> 7.30"
  },
  {
    "smiles code": "Cc1ccc(C(=O)Nc2ccc(C(=O)c3ncc(CC(=O)O)c4ccccc34)cc2)cc1",
    "pIC50": "> 7.30"
  },
  {
    "smiles code": "O=C(O)Cc1cnc(Cc2ccc(C(=O)NCCc3ccc(Oc4ccccc4)cc3)cc2)c2ccccc12",
    "pIC50": "> 7.30"
  },
  {
    "smiles code": "C/C(=C\\c1ccccc1)C(=O)Nc1ccc(C(=O)c2ncc(CC(=O)O)c3ccccc23)cc1",
    "pIC50": "> 7.30"
  },
  {
    "smiles code": "O=C(O)Cc1cnc(C(=O)c2ccc(NC(=O)C3Cc4ccccc4C3)cc2)c2ccccc12",
    "pIC50": "6.30 to 7.30"
  },
  {
    "smiles code": "O=C(O)Cc1cnc(Cc2ccc(C(=O)NCCc3cccc(Cl)c3Cl)cc2)c2ccccc12",
    "pIC50": "> 7.30"
  },
  {
    "smiles code": "O=C(O)Cc1cnc(Cc2ccc(C(=O)NCCc3ccncc3)cc2)c2ccccc12",
    "pIC50": "≤ 6.00"
  },
  {
    "smiles code": "O=C(O)Cc1cnc(Cc2ccc(C(=O)NCCc3ccc4ccccc4n3)cc2)c2ccccc12",
    "pIC50": "6.30 to 7.30"
  },
  {
    "smiles code": "CC(C)=CC(=O)Nc1ccc(C(=O)c2ncc(CC(=O)O)c3ccccc23)cc1",
    "pIC50": "6.00 to 6.30"
  }
]

====

target: CRTH2 (KB8 cells) (Homo sapiens); construct: host or cells: KB8 cells (human CRTH2 expression cell); assay: CRTH2 antagonist test (PGD2-induced intracellular calcium ion concentration increase in KB8 cells); type: cell-based; details: PGD2 final concentration 100 nM, Fluo-4-AM fluorescence, read-out: antagonist activity (IC50 value, inhibition of calcium ion concentration increase)
IC50 for assorted compounds
recorded endpoint: IC50

[
  {
    "compound": "COc1ccc(C(=O)Nc2ccc(C(=O)c3ncc(CC(=O)O)c4ccccc34)cc2)cc1Cl [Example 108]",
    "study system": "CRTH2 (KB8 cells) (Homo sapiens)",
    "measured result": "< 50 nM"
  },
  {
    "compound": "O=C(O)Cc1cnc(C(=O)c2ccc(NC(=O)c3ccc(F)c(F)c3)cc2)c2ccccc12 [Example 35]",
    "study system": "CRTH2 (KB8 cells) (Homo sapiens)",
    "measured result": "< 50 nM"
  },
  {
    "compound": "O=C(O)Cc1cnc(C(=O)c2ccc(NC(=O)Cc3c[nH]c4ccccc34)cc2)c2ccccc12 [Example 126]",
    "study system": "CRTH2 (KB8 cells) (Homo sapiens)",
    "measured result": "< 50 nM"
  },
  {
    "compound": "O=C(O)Cc1cnc(Cc2ccc(C(=O)NCCc3cccc(F)c3)cc2)c2ccccc12 [Example 182]",
    "study system": "CRTH2 (KB8 cells) (Homo sapiens)",
    "measured result": "50 to 500 nM"
  },
  {
    "compound": "O=C(O)Cc1cnc(Cc2ccc(C(=O)NCCc3ccc(F)c(F)c3)cc2)c2ccccc12 [Example 229]",
    "study system": "CRTH2 (KB8 cells) (Homo sapiens)",
    "measured result": "< 50 nM"
  },
  {
    "compound": "O=C(O)Cc1cnc(C(=O)c2ccc(NC(=O)c3ccc(O)cc3)cc2)c2ccccc12 [Example 89]",
    "study system": "CRTH2 (KB8 cells) (Homo sapiens)",
    "measured result": "< 50 nM"
  },
  {
    "compound": "O=C(O)Cc1cnc(C(=O)c2ccc(NC(=O)c3cccnc3)cc2)c2ccccc12 [Example 66]",
    "study system": "CRTH2 (KB8 cells) (Homo sapiens)",
    "measured result": "≥ 1000 nM"
  },
  {
    "compound": "O=C(O)Cc1cnc(Cc2ccc(C(=O)NCCC34CC5CC(CC(C5)C3)C4)cc2)c2ccccc12 [Example 240]",
    "study system": "CRTH2 (KB8 cells) (Homo sapiens)",
    "measured result": "< 50 nM"
  },
  {
    "compound": "O=C(O)Cc1cnc(C(=O)c2ccc(NC(=O)c3cccc(Br)c3)cc2)c2ccccc12 [Example 75]",
    "study system": "CRTH2 (KB8 cells) (Homo sapiens)",
    "measured result": "< 50 nM"
  },
  {
    "compound": "NC(=O)Cc1cnc(Cc2ccc(C(=O)NCCc3ccc(Cl)cc3)cc2)c2ccccc12 [Example 256]",
    "study system": "CRTH2 (KB8 cells) (Homo sapiens)",
    "measured result": "≥ 1000 nM"
  },
  {
    "compound": "O=C(O)Cc1cnc(C(=O)c2ccc(NC(=O)c3ccccc3F)cc2)c2ccccc12 [Example 39]",
    "study system": "CRTH2 (KB8 cells) (Homo sapiens)",
    "measured result": "500 to 1000 nM"
  },
  {
    "compound": "O=C(O)Cc1cnc(C(=O)c2ccc(NC(=O)COc3ccc(Cl)cc3)cc2)c2ccccc12 [Example 87]",
    "study system": "CRTH2 (KB8 cells) (Homo sapiens)",
    "measured result": "50 to 500 nM"
  },
  {
    "compound": "Cc1ccc(S(=O)(=O)NCC(=O)Nc2ccc(C(=O)c3ncc(CC(=O)O)c4ccccc34)cc2)cc1 [Example 68]",
    "study system": "CRTH2 (KB8 cells) (Homo sapiens)",
    "measured result": "50 to 500 nM"
  },
  {
    "compound": "O=C(Cc1cnc(Cc2ccc(C(=O)NCCc3ccc(Cl)cc3)cc2)c2ccccc12)NO [Example 258]",
    "study system": "CRTH2 (KB8 cells) (Homo sapiens)",
    "measured result": "≥ 1000 nM"
  },
  {
    "compound": "CS(=O)(=O)c1ccc(C(=O)Nc2ccc(C(=O)c3ncc(CC(=O)O)c4ccccc34)cc2)cc1 [Example 74]",
    "study system": "CRTH2 (KB8 cells) (Homo sapiens)",
    "measured result": "50 to 500 nM"
  },
  {
    "compound": "O=C(O)Cc1cnc(Cc2ccc(C(=O)NCCN3CCOCC3)cc2)c2ccccc12 [Example 185]",
    "study system": "CRTH2 (KB8 cells) (Homo sapiens)",
    "measured result": "≥ 1000 nM"
  },
  {
    "compound": "Cc1cc(C)cc(CCNC(=O)c2ccc(Cc3ncc(CC(=O)O)c4ccccc34)cc2)c1 [Example 231]",
    "study system": "CRTH2 (KB8 cells) (Homo sapiens)",
    "measured result": "< 50 nM"
  },
  {
    "compound": "Cc1ccc2sc(C(=O)Nc3ccc(C(=O)c4ncc(CC(=O)O)c5ccccc45)cc3)cc2c1 [Example 102]",
    "study system": "CRTH2 (KB8 cells) (Homo sapiens)",
    "measured result": "< 50 nM"
  },
  {
    "compound": "Cn1c(C(=O)Nc2ccc(C(=O)c3ncc(CC(=O)O)c4ccccc34)cc2)cc2ccccc21 [Example 123]",
    "study system": "CRTH2 (KB8 cells) (Homo sapiens)",
    "measured result": "< 50 nM"
  }
]
